Recorded values, source patent US11918568B2.

# Tested on: HEK293A cells
# method: Effect of NAMPT activator on the intracellular NAD+ level (in vitro cell-based assay)
# reportedConditions: HEK293-A, 3 h culture with compound, NAD+/NADH-Glo assay, read-out: EC50 (intracellular NAD+ content)
EC50 by entry:
Unit nM implied. Number only.

Solved cases (2 shown):
O=C(NCc1ccncc1)Nc1ccc2nc(-c3ccccc3)nn2c1 [Example 8]; 210
COc1cccc(C2Cc3ccc(NC(=O)NCc4ccncc4)cc3O2)c1 (centres unmarked) [Example 52]; 1240

QUERY: // lookup EC50 for N#Cc1c2ccc(NC(=O)NCc3ccncc3)cc2nn1-c1ccccc1 [Example 21]
RESULT: 230

QUERY: Same lookup for O=C(NCc1ccncc1)Nc1ccc2nc(-c3ccccc3)oc2c1 [Example 2] , please.
RESULT: 190

QUERY: Same lookup for Cn1nccc1-c1c(-c2ccccc2)nn2cc(NC(=O)NCc3ccncc3)ccc12 [Example 22] , please.
RESULT: 120

---

# Test system: HEK293A cells
# method: Effect of NAMPT activator on the intracellular NAD+ level (in vitro cell-based assay)
# reportedConditions: HEK293-A, 3 h culture with compound, NAD+/NADH-Glo assay, read-out: EC50 (intracellular NAD+ content)
pEC50 by entry:
Notebook: values listed as pEC50 are -log10 of the concentration (mol/L).

O=C(NCc1ccncc1)Nc1ccc2oc(-c3ccccc3)nc2c1; 6.27
Cc1ccccc1-c1nc2ccc(NC(=O)NCc3ccncc3)cc2o1; 6.37

QUERY: // lookup pEC50 for CCN(CC)C(=O)c1noc2cc(NC(=O)NCc3ccncc3)ccc12
RESULT: 6.35

---

pEC50 by entry:
# measuredTarget: human NAMPT enzyme (Homo sapiens (Human))
# method: NAMPT enzyme activating effect (in vitro cell-free enzyme assay)
# reportedConditions: 2 ng/mL human NAMPT enzyme, 1-h incubation at 25° C., fluorescence of NMN derivative
# Method: The NAMPT enzyme assay was conducted in accordance with the method of Formentini et al. […] Hereinafter, the procedures will be briefly described. […] The NAMPT enzyme activity was calculated as the difference between fluorescence intensity (Ex 380 nm/Em 450 nm) from the reaction of a test compound treatment group and fluorescence intensity from control reaction free from the NAMPT enzyme. […]
Notebook: values listed as pEC50 are -log10 of the concentration (mol/L).

O=C(NCc1ccncc1)Nc1ccc2c(C(=O)N3CC4CCC(C3)O4)noc2c1 [Example 57]; 6.72
Cc1c(-c2ccccc2)nn2cc(NC(=O)NCc3ccncc3)ccc12 [Example 25]; 7.15
O=C(NCc1ccncc1)Nc1ccc2oc(-c3ccccc3)nc2c1 [Example 7]; 6.39
O=C(NCc1ccncc1)Nc1ccc2c(c1)OCC2c1ccccc1 (centres unmarked) [Example 54]; 6.57

// below: pEC50 requested for another compound
QUERY: // lookup pEC50 for O=C(NCc1ccncc1)Nc1cnc2cc(-c3ccccc3)nn2c1 [Example 31]
RESULT: 6.37

---

# measuredTarget: human NAMPT enzyme (Homo sapiens (Human), UniProt P43490)
# Sequence (P43490 whole entry): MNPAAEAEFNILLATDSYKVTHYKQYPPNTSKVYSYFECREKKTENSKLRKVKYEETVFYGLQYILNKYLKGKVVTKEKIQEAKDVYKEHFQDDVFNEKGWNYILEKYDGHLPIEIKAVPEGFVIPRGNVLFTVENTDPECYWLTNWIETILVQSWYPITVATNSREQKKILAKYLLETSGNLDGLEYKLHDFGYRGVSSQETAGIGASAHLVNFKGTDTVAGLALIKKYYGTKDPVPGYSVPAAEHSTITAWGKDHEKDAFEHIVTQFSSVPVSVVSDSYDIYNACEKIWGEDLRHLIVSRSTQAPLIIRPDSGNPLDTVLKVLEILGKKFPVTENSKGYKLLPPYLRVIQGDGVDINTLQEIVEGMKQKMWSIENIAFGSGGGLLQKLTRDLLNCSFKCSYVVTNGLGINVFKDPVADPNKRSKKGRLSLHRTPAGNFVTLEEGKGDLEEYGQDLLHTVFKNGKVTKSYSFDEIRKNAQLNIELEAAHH
# method: NAMPT enzyme activating effect (in vitro cell-free enzyme assay)
# reportedConditions: 2 ng/mL human NAMPT enzyme, 1-h incubation at 25° C., fluorescence of NMN derivative
EC50 by entry:
Unit µM implied. Number only.

Solved cases (4 shown):
CCN(CC)C(=O)c1c2ccc(NC(=O)NCc3ccncc3)cc2nn1-c1ccccc1 [Example 18]; 0.05
CC1(c2nc3ccc(NC(=O)NCc4ccncc4)cc3o2)CC1 [Example 3]; 0.15
Cc1ccccc1-c1nc2ccc(NC(=O)NCc3ccncc3)cc2o1 [Example 1]; 0.11
N#Cc1c(-c2ccccc2)nn2cc(NC(=O)NCc3ccncc3)ccc12 [Example 24]; 0.05

// below: EC50 requested for another molecule
QUERY: // lookup EC50 for O=C(NCc1ccncc1)Nc1ccc2nc(-c3ccccc3C(F)(F)F)nn2c1 [Example 14]
RESULT: 0.18
